Recorded pKd for the following binders
# targetOfAssay: T1, cynomolgus monkey (cyno) complement protein C5 (cynomolgus monkey, UniProt A0A2K5U1T1 19-1676)
# T1 construct: also called cC5; cyno C5
# protocolDetails: SPR (Biacore)
When answering, recall that pKd equals minus log10 of the concentration in mol/L, and write that number alone.

# binder, pKd
measured = [
    ("LCP0115 (VHH, llama anti-C5 VHH, tested as VHH-His fusion; not shown: His-tag) VHH: EVQLVESGGGLVQAGGSLRLSCAASGRTFSGILSPYAVGWFRQAPGKGREFVSTITSGGSAIYTDSVKGRFTLSRDNAKDTVYLQMNSLKPEDTAVYYCAVRTRRYGSNLGEVPQENEYGYWGQGTQVTVSS", 9.97),
]

Per the records, this binder ( LCP0302 (VHH, llama anti-C5 VHH, tested as VHH-His fusion; not shown: His-tag) VHH: EVQLVESGGGLVQAGGSLRLSCAASGRTFSGILSAYAVGWFRQAPGKEREFVSTITSGGSTLSADSVKGRFTLSRDNAKDTVYLQMNSLKPEDTAVYYCAVRTWPYGSNRGEVPTENEYGHWGQGTQVTVSS ) has pKd equal to 9.63

Per the records, this binder ( LCP0095 (VHH, llama anti-C5 VHH, tested as VHH-His fusion; not shown: His-tag) VHH: EVQLVESGGGLVQAGGSLRLSCTASGRTISTTVMAWFRQAPGKEREFVAADHWGDAGTVYADSVKGRFTISRDNAKNTVYLQMNYLKPEDTSVYYCAARPPTYVGTSRDSRAYDYWGQGTQVTVSS ) has pKd equal to 8.43

Per the records, this binder ( LCP0146 (VHH, llama anti-C5 VHH, tested as VHH-His fusion; not shown: His-tag) VHH: EVQLVESGGGLVQAGGSLRLSCAASGRAFSDYAMAWFRQAPGKEREFVAGIGWSGGDTLYADSVRGRFTNSKDNAKNRMSLQMNSLKPEDTAVYYCAARQGQYIYSSMRSDSYDYWGQGTQVTVSS ) has pKd equal to 10.04
